Assay: Inhibitory activity against Gamma-aminobutyric acid A (GABA-A) receptor
Set-up: species or system Rattus norvegicus
Recorded Endpoint: IC50

Consider NCC(CS(=O)O)c1ccc(Cl)cc1 (racemic) . Its measured IC50 is > 100 µM
